# targetOrSystem: human A2B AR (Homo sapiens, UniProt P29275)
# Sequence (P29275 1-332): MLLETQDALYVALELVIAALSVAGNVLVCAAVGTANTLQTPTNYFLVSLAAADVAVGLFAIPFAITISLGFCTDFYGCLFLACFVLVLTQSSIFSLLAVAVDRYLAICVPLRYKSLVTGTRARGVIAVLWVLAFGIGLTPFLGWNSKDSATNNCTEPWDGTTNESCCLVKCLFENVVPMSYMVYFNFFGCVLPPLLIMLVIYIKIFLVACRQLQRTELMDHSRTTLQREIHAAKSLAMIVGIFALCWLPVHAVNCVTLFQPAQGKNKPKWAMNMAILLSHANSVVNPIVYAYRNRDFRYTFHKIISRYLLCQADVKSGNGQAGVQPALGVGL
# assayComment: cAMP functional assay in CHO-K1/ADORA2b/Gα15 cells (NECA-stimulated, HTRF)
# Type: cell-based
# settings: CHO-K1; compound at 100 nM; relative to ZM241385 at 1 μM; mean ± SEM; read-out: hA2B AR (%) inhibition of cAMP, 100 nM
property: inhibition at 0.1 µM (%)

Example entries begin here.
{"columns": ["smilesRepresentation", "targetOrSystem", "property", "observedMeasurement"],
 "data": [
  ["COC(=O)c1cccc(Cn2cc(-c3cc(-c4cccc(C#N)c4C)nc(N)n3)nn2)n1", "human A2B AR (Homo sapiens, UniProt P29275)", "inhibition at 0.1 µM", 80.3],
  ["Cc1c(C#N)cccc1-c1cc(-c2cn(Cc3cccc(C(=O)NCCO)n3)nn2)nc(N)n1", "human A2B AR (Homo sapiens, UniProt P29275)", "inhibition at 0.1 µM", 82.4],
  ["Cc1c(C#N)cccc1-c1cc(-c2cn(Cc3cccc(C(=O)N4CC(O)C4)n3)nn2)nc(N)n1", "human A2B AR (Homo sapiens, UniProt P29275)", "inhibition at 0.1 µM", 78.3]
]}

[1] CC(C)(O)c1cccc(Cn2cc(-c3cc(-c4cccc(CF)c4)nc(N)n3)nn2)n1
[2] Cc1c(C#N)cccc1-c1cc(-c2cn(Cc3ccc4cccc(N)c4n3)nn2)nc(N)n1
Inquiry: Of the two listed items, 1 and 2 , which carries the larger inhibition at 0.1 µM figure? Please identify the chosen entry by its label.
Reply text: 2
